Hey, just so you know, these numbers are from PubChem BioAssay (EPA / NIEHS).

Test: CCTE_Shafer_MEA_dev_LDH: CCTE's Lactate Dehydrogenase Assay for Cytotoxicity in the Neural Network Formation Assay, Shafer Lab (AID 2284068);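 further: exposure for twelve days from plating with re-dosing on DIV 5 and 9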
Procedure: CCTE_Shafer_MEA_dev assay is conducted using Axion Biosystems 48 well microelectrode array (MEA) plates and Maestro recording system. Each well of the MEA plate contains a grid of 16 microelectrodes embedded in the culture surface. Electrically active cells, such as neurons, can be cultured over the electrodes, and electrical activity in these cells can be recorded extracellularly. […]
Results filed as inconclusive are left out. Calls of active or inactive are those of the source. How the source made its calls: active means hit-call score of the fitted dose curve at least 0.9, where 1 is the maximum; inconclusive means response in the unintended direction; inactive means score below 0.9.
// allowed return values: active, inactive

N#CN=C1SCCN1Cc1ccc(Cl)nc1 :: inactive

Per the assay record, what outcome was assigned to CC(C)(C)C(=O)C(Oc1ccc(Cl)cc1)n1cncn1 (stereo not given) ?
active

Per the assay record, what outcome was assigned to C=C(C)CN(CC)c1c([N+](=O)[O-])cc(C(F)(F)F)cc1[N+](=O)[O-] ?
active

Per the assay record, what outcome was assigned to CCOC(=O)C(C)OC(=O)c1cc(Oc2ccc(C(F)(F)F)cc2Cl)ccc1[N+](=O)[O-] (stereo not given) ?
inactive

Per the assay record, what outcome was assigned to CC(C)=CC1C(C(=O)OCc2coc(Cc3ccccc3)c2)C1(C)C (stereo not given) ?
active

Per the assay record, what outcome was assigned to CC1(C)C(C(=O)OC(C#N)c2cccc(Oc3ccccc3)c2)C1(C)C (stereo not given) ?
active

Per the assay record, what outcome was assigned to COC(=O)N(C(=O)N1CO[C@@]2(C(=O)OC)Cc3cc(Cl)ccc3C2=N1)c1ccc(OC(F)(F)F)cc1 ?
active

Per the assay record, what outcome was assigned to CCNC(=O)NC(=O)C(C#N)=NOC ?
inactive

Per the assay record, what outcome was assigned to COP(=S)(OC)Oc1ccc([N+](=O)[O-])c(C)c1 ?
inactive

Per the assay record, what outcome was assigned to CCN(CC)c1nc(C)cc(OP(=S)(OC)OC)n1 ?
active
